// provenance: ChEMBL document CHEMBL4602613

# target under test: Aldo-keto reductase family 1 member B1 (Homo sapiens)
# experiment description: Inhibition of human recombinant AKR1B1 assessed as D,L-glyceraldehyde reduction pretreated with 0.7M DMSO followed by compound addition by DMSO-perturbation assay
measured property: IC50 (µM)

P = Cn1cnc2c1c(=O)n(CCCCC1(C)NC(=O)NC1=O)c(=O)n2C (configuration not stated)
Q = O=C1NC(=O)C(c2ccccc2)(c2ccc(O)cc2)N1 (configuration not stated)
Compare reported IC50 values for P and Q . Which is lower? Answer with the label corresponding to your selection.
Q

---

# target under test: UniProtKB P15121
# experiment description: Inhibition of human recombinant AKR1B1 assessed as D,L-glyceraldehyde reduction pretreated with 0.3M DMSO followed by compound addition by DMSO-perturbation assay
pIC50: −log10 of the molar value.
measured property: pIC50

A = O=C1NC(=O)C(c2ccccc2)(c2ccc(O)cc2)N1 (configuration not stated)
B = Cn1cnc2c1c(=O)n(CCCCC1(C)NC(=O)NC1=O)c(=O)n2C (configuration not stated)
Short answer wanted: higher pIC50, A or B ? Answer with the label corresponding to your selection.
A
(A: 4.39, B: 4.18)
